Test system: NCI-H650
Test: relative viability (nuclei count vs DMSO), 5 days (fraction); higher = more cells survive
Settings: first compound 0.005 µM
For each record, check the reported relative viability: if it is below 0.5 write Yes, else write No.

Sample answers from the record:
Nc1ccn([C@@H]2O[C@H](CO)[C@@H](O)[C@@H]2O)c(=O)n1 [Cytarabine] + Cc1nc(Nc2ncc(C(=O)Nc3c(C)cccc3Cl)s2)cc(N2CCN(CCO)CC2)n1 [Dasatinib] (partner 0.075 µM) :: Yes
Nc1ccn([C@@H]2O[C@H](CO)[C@@H](O)[C@@H]2O)c(=O)n1 [Cytarabine] + Cc1cc(Nc2cc(N3CCN(C)CC3)nc(Sc3ccc(NC(=O)C4CC4)cc3)n2)n[nH]1 [Tozasertib] (partner 0.1 µM) :: No
Nc1ccn([C@@H]2O[C@H](CO)[C@@H](O)[C@@H]2O)c(=O)n1 [Cytarabine] + CS(=O)(=O)N1CCN(Cc2cc3nc(-c4cccc5[nH]ncc45)nc(N4CCOCC4)c3s2)CC1 [Pictilisib] (partner 1 µM) :: No
Nc1ccn([C@@H]2O[C@H](CO)[C@@H](O)[C@@H]2O)c(=O)n1 [Cytarabine] + CS(=O)(=O)CCNCc1ccc(-c2ccc3ncnc(Nc4ccc(OCc5cccc(F)c5)c(Cl)c4)c3c2)o1 [Lapatinib] (partner 2 µM) :: No
COc1cc2nccc(Oc3ccc(NC(=O)Nc4cc(C)on4)c(Cl)c3)c2cc1OC [Tivozanib] + N=C(N)NC(=N)NCCc1ccccc1 [Phenformin] (partner 250 µM) :: Yes

Is relative viability strictly under 0.5 for the entry COc1cc2nccc(Oc3ccc(NC(=O)Nc4cc(C)on4)c(Cl)c3)c2cc1OC [Tivozanib] + NC(=O)Nc1cc(-c2cccc(F)c2)sc1C(=O)N[C@H]1CCCNC1 [AZD7762] (partner 0.2 µM) ?
No

Could you please tell me whether relative viability recorded for Nc1ccn([C@@H]2O[C@H](CO)[C@@H](O)[C@@H]2O)c(=O)n1 [Cytarabine] + O=C(CCCCCCC(=O)Nc1ccccc1)NO [Vorinostat] (partner 1 µM) is less than 0.5?
Yes

Here's an entry: Nc1ccn([C@@H]2O[C@H](CO)[C@@H](O)[C@@H]2O)c(=O)n1 [Cytarabine] + O=C(c1cc(Cc2n[nH]c(=O)c3ccccc23)ccc1F)N1CCN(C(=O)C2CC2)CC1 [Olaparib] (partner 8 µM) . Is its relative viability below 0.5?
Yes

I wonder whether COc1cc2nccc(Oc3ccc(NC(=O)Nc4cc(C)on4)c(Cl)c3)c2cc1OC [Tivozanib] + COc1cc2c(Oc3ccc(NC(=O)C4(C(=O)Nc5ccc(F)cc5)CC4)cc3F)ccnc2cc1OCCCN1CCOCC1 [Foretinib] (partner 0.25 µM) has relative viability below 0.5. Can you tell?
No

hey, is relative viability for Nc1ccn([C@@H]2O[C@H](CO)[C@@H](O)[C@@H]2O)c(=O)n1 [Cytarabine] + Cc1nc(NC(=O)N2CCC[C@H]2C(N)=O)sc1-c1ccnc(C(C)(C)C(F)(F)F)c1 [Alpelisib] (partner 2 µM) lower than 0.5 or not?
No

Is the reported relative viability for Nc1ccn([C@@H]2O[C@H](CO)[C@@H](O)[C@@H]2O)c(=O)n1 [Cytarabine] + CC(=O)Nc1cccc(-n2c(=O)n(C3CC3)c(=O)c3c(Nc4ccc(I)cc4F)n(C)c(=O)c(C)c32)c1 [Trametinib] (partner 0.02 µM) strictly below 0.5?
No

Does the reported relative viability of Nc1ccn([C@@H]2O[C@H](CO)[C@@H](O)[C@@H]2O)c(=O)n1 [Cytarabine] + Nc1ncn([C@H]2C[C@H](O)[C@@H](CO)O2)c(=O)n1 [Decitabine] (partner 2 µM) stay below 0.5?
Yes
